Test system: XIP peptide (Xip251-270) binding
Assay: small-molecule binders of XIP peptide, primary screen, biochemical, small-molecule microarray, fluorescence 635/667 nm, 0.1 µg/mL protein (AID 1182)
Conditions: fluorescent protein binding, 635 nm, higher = more signal, called active from +8 up or from −8 down
Task for the reader: assign each of the following compounds its reported composite z-score.
Numbers only.

compound: CC(CCC(=O)OC[C@H]1O[C@H](C#Cc2ccccc2)C=C[C@@H]1Oc1ccc(C)cc1)=NO[C@H](C)c1cn([C@H](CO)Cc2ccccc2)nn1
endpoint.name: composite z-score
value.measured: 0.157
//
compound: CCCCC#C[C@@H]1C=C[C@H](Oc2ccc(C(=O)OC)cc2)[C@@H](COC(=O)OCC)O1
endpoint.name: composite z-score
value.measured: -0.464
//
compound: C#CCCCON=C1C[C@@H](O)[C@@H](O)[C@@H]2[C@@H]3C(=O)N(c4ccc(F)cc4F)C(=O)[C@@H]3CC[C@H]12
endpoint.name: composite z-score
value.measured: 1.55
//
compound: COc1cccc([C@H]2Oc3ccc(OC)cc3C(=NOC[C@@H](O)[C@H]3O[C@@H]4OC(C)(C)O[C@@H]4[C@H]3O)[C@@H]2O)c1
endpoint.name: composite z-score
value.measured: -0.815
//
compound: COCOc1ccc(Br)cc1C(=O)[C@@H]1O[C@H]1c1cccc(OC)c1
endpoint.name: composite z-score
value.measured: -0.0455

Look up composite z-score for the entries below, preserving their order.
1. CO[C@H]1COC(=O)[C@H](C)NC(=O)[C@@H](C)COC(=O)[C@H]2CCCN2C(=O)CC=C[C@H]1C
2. COCCNC(=O)OCC1CCCC2(CC(OC(=O)NCc3ccc4c(c3)OCO4)CC(CCC(=O)N[C@@H](C)C(=O)OC)O2)O1 (stereo not given in full)
3. O=C1C2=CC[C@H]3C(=O)N(c4cccc(Oc5ccccc5)c4)C(=O)[C@H]3[C@H]2[C@H](O)[C@@H]2O[C@H]12
4. Cc1ccc(S(=O)(=O)N[C@H]2COC(=O)CC=C[C@@H](C)COC(=O)CC=C[C@@H]2C)cc1
5. COC(=O)CC=C[C@@H](C)[C@@H](C=NO[C@@H]1O[C@H](COC(C)=O)[C@@H](OC(C)=O)[C@H](OC(C)=O)[C@H]1OC(C)=O)NS(=O)(=O)c1ccc(C)cc1

A.
1. -0.077
2. 0.412
3. -0.0743
4. 0.172
5. -0.0076
